- target: T1, human GFRα3 expressed with a C-terminal myc-myc-hexahistidine tag (human, UniProt O60609 32-374, biotinylated (sites not given) in ELISA format 2 and in the Octet cross-competition; not in SPR)
- T1 construct: also called hGFRα3-mmh; hGFRα3-mmH
- T1 sequence (O60609 other isoform, or with tags, fused parts or gaps limits assumed): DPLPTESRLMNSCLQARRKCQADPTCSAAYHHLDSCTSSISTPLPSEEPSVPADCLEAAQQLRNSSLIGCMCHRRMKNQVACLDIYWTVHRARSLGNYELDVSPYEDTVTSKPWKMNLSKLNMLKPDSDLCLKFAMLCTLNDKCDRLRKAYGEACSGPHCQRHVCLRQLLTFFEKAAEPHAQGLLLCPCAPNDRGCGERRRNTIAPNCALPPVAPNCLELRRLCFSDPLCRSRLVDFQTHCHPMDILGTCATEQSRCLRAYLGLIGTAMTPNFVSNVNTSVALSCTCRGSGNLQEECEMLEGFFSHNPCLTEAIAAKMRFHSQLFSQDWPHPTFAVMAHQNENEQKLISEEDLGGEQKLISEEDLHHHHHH
- procedure-text: blocking ELISA 2, biotin-hGFRα3-mmH to coated hARTEMIN-mmH + hRET-10His
measurement-label: IC50 (nM)
State the answer as a number, implicitly in nM.

binder: H4H2346S (antibody, human IgG4, V domains shown, human IgG4 Fc (H4H)) VH: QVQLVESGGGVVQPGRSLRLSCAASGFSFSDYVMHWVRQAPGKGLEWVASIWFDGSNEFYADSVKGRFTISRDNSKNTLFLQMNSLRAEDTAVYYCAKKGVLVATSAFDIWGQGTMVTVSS VL: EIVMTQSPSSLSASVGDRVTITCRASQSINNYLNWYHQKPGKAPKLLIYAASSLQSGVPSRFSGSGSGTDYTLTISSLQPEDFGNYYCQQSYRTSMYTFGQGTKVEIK
observed-result: 0.797

binder: H4H2364S (antibody, human IgG4, V domains shown, human IgG4 Fc (H4H)) VH: EVQLVESGGGLEQPGGSLRLSCAASGFTFSSYVMSWVRQVPGKGLEWVSVISGSGGSTYYADSVKGRFTISRDNSKNTLYLQMNSLRAEDTAVYYCAKPSSYSSSNFHYGMDVWGQGTTVTVSS VL: DIQMTQSPYSVSASVGDRVTITCRASQGISSWLAWYQQKPGRAPKLLIYAASSLQSGVPSRFSGSGSGTDFTLTISSLQPEDFATYYCQKTNSFPFTFGPGTKVEIK
observed-result: 1.45

Reported IC50, binder H4H2354S (antibody, human IgG4, V domains shown, human IgG4 Fc (H4H); also called H4H2354S-1) VH: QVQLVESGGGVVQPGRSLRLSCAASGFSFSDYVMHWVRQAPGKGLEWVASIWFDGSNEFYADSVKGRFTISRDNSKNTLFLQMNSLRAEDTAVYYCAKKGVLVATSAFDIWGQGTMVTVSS VL: DIQLTQSPSSLSASVGDRVTITCRASQSINNYLNWYHQKPGKAPKLLIYAASSLQSGVPSRFSGSGSGTDYTLTISSLQPEDFGNYYCQQSYRTSMYTFGQGTKVEIK : ____
1.32

Now consider H4H2357S (antibody, human IgG4, V domains shown, human IgG4 Fc (H4H)) VH: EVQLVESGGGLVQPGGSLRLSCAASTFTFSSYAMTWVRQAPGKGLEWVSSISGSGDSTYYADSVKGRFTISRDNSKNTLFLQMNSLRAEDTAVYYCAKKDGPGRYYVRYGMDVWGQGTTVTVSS VL: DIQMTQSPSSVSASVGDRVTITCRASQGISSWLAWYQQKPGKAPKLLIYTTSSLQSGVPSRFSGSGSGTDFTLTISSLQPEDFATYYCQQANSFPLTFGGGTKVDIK .
3.28

Try this binder too: H4H2342P (antibody, human IgG4, V domains shown, human IgG4 Fc (H4H)) VH: EVQLLESGGGLVQPGGSLRLSCAASGFTFSTYAMSWVRQAPGKGLEWVSAIRGNGVNTYYGDSMKGRFTISRDNSKDTLYLQMNSLRAEDTAVYYCAKNKWELLVFEYWGQGTLVTVSS VL: DIQMTQSPSSLSASVGDRVTITCRASQDISNYLAWYQQKPGKVPKLLIYAASTLQSGVPFRFSGSGSGTDFTLTISSLQPEDVATYYCQKYNSAPPFGPGTKVDIK
1.08

Same question, H4H2352S (antibody, human IgG4, V domains shown, human IgG4 Fc (H4H); also called H4H2352S-1) VH: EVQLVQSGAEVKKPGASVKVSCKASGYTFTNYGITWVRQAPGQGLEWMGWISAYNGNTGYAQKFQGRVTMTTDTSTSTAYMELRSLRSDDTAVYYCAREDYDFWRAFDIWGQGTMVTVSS VL: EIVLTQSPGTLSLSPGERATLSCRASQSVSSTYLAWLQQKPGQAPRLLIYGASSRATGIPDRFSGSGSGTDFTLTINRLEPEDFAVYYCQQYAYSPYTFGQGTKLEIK this time
0.761

Also, H4H2294S (antibody, human IgG4, V domains shown, human IgG4 Fc (H4H)) VH: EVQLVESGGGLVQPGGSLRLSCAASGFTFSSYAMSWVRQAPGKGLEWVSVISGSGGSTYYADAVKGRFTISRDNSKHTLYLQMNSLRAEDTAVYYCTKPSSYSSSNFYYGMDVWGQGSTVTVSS VL: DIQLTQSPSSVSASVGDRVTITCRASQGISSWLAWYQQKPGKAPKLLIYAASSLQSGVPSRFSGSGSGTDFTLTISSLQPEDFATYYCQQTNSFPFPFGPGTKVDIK please.
0.952

Next: H4H2243N2 (antibody, human IgG4, V domains shown, human IgG4 Fc (H4H)) VH: QVQLVQSGAEVKKPGASVKVSCKASGYTFTSYGIIWVRQAPGQGLEWMGWISGYNGNTNYAQNLQGRVTMTTDTSTTTAYMELRSLRSDDTAVYYCARWGIATRPYYYYGMDVWGQGTTVTVSS VL: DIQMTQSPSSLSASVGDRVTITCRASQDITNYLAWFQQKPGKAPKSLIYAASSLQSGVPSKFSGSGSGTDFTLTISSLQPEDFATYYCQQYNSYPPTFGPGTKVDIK
1.12

# repeat for H4H2345S (antibody, human IgG4, V domains shown, human IgG4 Fc (H4H)) VH: EVQLVESGGGLVRPGRSLRLSCAASGFTFDNYAMHWVRQVPGKGLEWVSGITWNSVSLGYADSVKGRFTISRDNAQNSLYLQMNSLRTVDTALYYCAKDRWGGSYYFDFWGQGTLVTVSS VL: DIVMTQSPSSLSASVGDRVTITCRASQGISNYLAWYQQKPGKVPKLLIYSASTLQSGVPSRFSGSGSGTDFTLTISNLQPEDFATFFCQKYNSAPTFGGGTKVEIK
14.6

Further, for H4H2350P (antibody, human IgG4, V domains shown, human IgG4 Fc (H4H)) VH: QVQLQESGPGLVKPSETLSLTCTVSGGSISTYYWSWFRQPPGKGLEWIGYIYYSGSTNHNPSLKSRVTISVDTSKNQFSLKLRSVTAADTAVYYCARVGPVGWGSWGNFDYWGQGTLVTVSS VL: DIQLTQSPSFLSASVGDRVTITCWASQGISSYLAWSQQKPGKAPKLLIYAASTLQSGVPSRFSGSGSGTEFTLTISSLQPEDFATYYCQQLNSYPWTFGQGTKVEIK ?
1.29
